Assay: RP, Waters ACQUITY UPLC BEH C18, 50 × 2.1 mm, 1.7 µm, 40 °C, 0.6 mL/min, estimated dead time 0.18 min; A: water + 0.1% formic acid, pH 3; B: acetonitrile + 0.1% formic acid, pH 3; gradient (min/%B) 0/5 7/100 8/100
Details: stereoisomer not certain
observable: LC retention time (min)

>  <compound>
C[C@@H]1CC2(N=CCS2)[C@]2(O)OC3C[C@@]4(C=O)C(CCC5C4CC[C@]4(C)C(C6=CC(=O)OC6)CC(O)[C@]54O)CC3OC2O1 (some centres undefined)

>  <experimental.value>
0.41

$$$$
>  <compound>
COc1ccc2c3c1OC1C(O)C=CC4C(C2)N(C)CCC341 (centres undefined)

>  <experimental.value>
0.85

$$$$
>  <compound>
C=C(C(=O)C(O)C(C)C1C(OC(C)=O)CC2(C)C3CCC4C(C)C(=O)C=CC45CC35CCC12C)C(C)C (centres undefined)

>  <experimental.value>
5.56

$$$$
>  <compound>
CCCCCCCCCCCCCCC(O)C(O)CCC(O)C1CCC(CCCCCC(O)CC2=CC(C)OC2=O)O1 (centres undefined)

>  <experimental.value>
6.01

$$$$

---

Assay: RP, Waters ACQUITY UPLC BEH C18, 50 × 2.1 mm, 1.7 µm, 40 °C, 0.6 mL/min, estimated dead time 0.18 min; A: water + 0.1% formic acid, pH 3; B: acetonitrile + 0.1% formic acid, pH 3; gradient (min/%B) 0/5 7/100 8/100
Conditions: stereoisomer not certain
Quick rule for you: LC retention time under 2 min gets Satisfied, anything else gets Not satisfied.

>  <molecule>
COc1cc(O)ccc1CCC(c1ccc(O)cc1)c1cc(CCC(=O)c2ccc(O)cc2)c(O)cc1O (stereo not drawn)

>  <answer.label>
Not satisfied

$$$$
>  <molecule>
CCC1C2CCCCN3CCC(C4C(C)C(=O)OC14)C23 (stereo not drawn)

>  <answer.label>
Satisfied

$$$$
>  <molecule>
COC1=CC(=O)C2(c3cc(=O)c4c(O)cc(O)cc4o3)C(CC=C(C)C2C[C@H]2[C@@H](C)[C@@H](O)C[C@H]3C(C)(C)C[C@H](O)C[C@]23C)C1=O (stereo partly drawn)

>  <answer.label>
Satisfied

$$$$
>  <molecule>
C=C1C(=O)C23C(O)CC4C(C)(C)CCCC4(CO)C2C(O)CC1C3O (stereo not drawn)

>  <answer.label>
Satisfied

$$$$
>  <molecule>
CCC1C2CCCCN3C(C4CC(C)C(=O)O4)CC(C4C(C)C(=O)OC14)C23 (stereo not drawn)

>  <answer.label>
Satisfied

$$$$
>  <molecule>
CC(=O)OC1CC(O)C23COC(O)C1(C)C2CC(O)C1(C)C3=C(O)C(=O)C2(C)C(c3ccoc3)CC3OC312 (stereo not drawn)

>  <answer.label>
Not satisfied

$$$$
>  <molecule>
CC(=O)OC1CC(O)C23COCC1(C)C2CC(O)C1(C)C3C(=O)C(O)C2(C)C(c3ccoc3)CC3OC321 (stereo not drawn)

>  <answer.label>
Not satisfied

$$$$
>  <molecule>
COc1cc(/C=C/C(=O)OC2CC3(C)CCC2C3(C)C)ccc1O (stereo not drawn)

>  <answer.label>
Not satisfied

$$$$

---

Item-by-item account of LC retention time
Test: RP, Waters ACQUITY UPLC BEH C18, 50 × 2.1 mm, 1.7 µm, 40 °C, 0.6 mL/min, estimated dead time 0.18 min; A: water + 0.1% formic acid, pH 3; B: acetonitrile + 0.1% formic acid, pH 3; gradient (min/%B) 0/5 7/100 8/100
Settings: stereoisomer not certain

>  <molecule>
CCN1CC2(COC(=O)c3ccccc3NC(=O)C(C)CC(=O)O)CCC(OC)C34C5CC6C(OC)CC(O)(C5C6OC)C(O)(C(OC)C23)C14 (centres undefined)

>  <unit.descriptor>
min

>  <LC retention time>
2.37

$$$$
>  <molecule>
C=C(C)C12CC(C)C34OC(CCCCCCCCCCCCC)(OC1C3C1OC1(CO)C(O)C1(O)C(=O)C(C)=CC14)O2 (centres undefined)

>  <unit.descriptor>
min

>  <LC retention time>
6.97

$$$$
>  <molecule>
CC1=C2CC3(C)C(C)CCCC3CC2(O)OC1=O (centres undefined)

>  <unit.descriptor>
min

>  <LC retention time>
3.6

$$$$
>  <molecule>
CC1CC2CC3CCCC(=O)N3C3CCC(O)C(C1)N23 (centres undefined)

>  <unit.descriptor>
min

>  <LC retention time>
0.92

$$$$
>  <molecule>
C/C=C1/CN2CCc3c([nH]c4ccccc34)[C@@](CO)(C(=O)OC)[C@H]1CC2

>  <unit.descriptor>
min

>  <LC retention time>
1.32

$$$$
>  <molecule>
COc1c(C=O)c(O)cc2c1C(=O)c1ccccc1C2=O

>  <unit.descriptor>
min

>  <LC retention time>
3.59

$$$$
>  <molecule>
CCC(C)C(=O)C1=C(O)C2(CC=C(C)C)CC(CC=C(C)C)C(C)(C)C(C(CC(=O)O)c3ccccc3)=C2OC1=O (centres undefined)

>  <unit.descriptor>
min

>  <LC retention time>
6.36

$$$$
>  <molecule>
C/C=C(/C)C(=O)OC1CCC2CC3(O)OC(=O)C(C)=C3CC2(C)C1C (centres undefined)

>  <unit.descriptor>
min

>  <LC retention time>
4.16

$$$$
>  <molecule>
C=C1C2CCC3C4(C)CCCC(C)(C(=O)O)C4CCC3(C2)C1O (centres undefined)

>  <unit.descriptor>
min

>  <LC retention time>
3.64

$$$$

src = the RepoRT retention time repository
